ASSAY SYSTEM: SARS-CoV-2 Spike RBD-His Tag, Sino Biological (SARS-CoV-2)
OBSERVATION TYPE: xmid (log10)
Please reply with the number alone, leaving off any unit.

vhh_tstrep_sars2_pjl1_L_123 (VHH) VHH: QVQLQESGGGLVQAGGSLRLSCAASGRTFSEYAMGWFRQAPGKEREFVATISWIGGATYHTDSVKGRFTISRDNAKNTVYLQMNSLKPDDTAVYYCAAAGLGTVVSEWDYDYDYWGQGTQVTVSS | 0.9
vhh_tstrep_sars2_pjl1_L_126 (VHH) VHH: QVQLQESGGGLVQAGGSLRLSCAASGRTFSEYAMGWFRQAPGKEREFVATISWSGGASYHTDSVKGRFTISRDNAKNTVYLQMNSLKPDDTAVYYCAAAGLGTVVSEWDYDYDYWGQGTQVTVSS | 0.489
vhh_tstrep_sars2_pjl1_L_130 (VHH) VHH: QVQLQESGGGLVQAGGSLRLSCAASGRTFSEYAMGWFRQAPGKEREFVATISWSGGATYHTDSVKARFTISRDNAKNTVYLQMNSLKPDDTAVYYCAAAGLGTVVSEWDYDYDYWGQGTQVTVSS | 0.204
vhh_tstrep_sars2_pjl1_L_128 (VHH) VHH: QVQLQESGGGLVQAGGSLRLSCAASGRTFSEYAMGWFRQAPGKEREFVATISPSGGATYHTDSVKGRFTISRDNAKNTVYLQMNSLKPDDTAVYYCAAAGLGTVVSEWDYDYDYWGQGTQVTVSS | 0.384

Can you share its xmid (log10)? I mean this binder: vhh_tstrep_sars2_pjl1_L_135 (VHH) VHH: QVQLQESGGGLVQAGGSLRLSCAASGRTFSEYAMGWFRQAPGKEREFVATISWSGGATYHTDSVKGRFTISRDNAKNTVYLQMNSLKPDDTAVYYCAAAGLWTVVSEWDYDYDYWGQGTQVTVSS
-1.5
